# Tested on: IGROV-1
# procedure.summary: NCI tumour cell line growth inhibition, 48 h
Active and inactive are the calls of the source. Cut-off read from the data, not from the text of the source: active = GI50 up to about 1.1 µM and inactive = higher.
In this section, each of the molecules is paired with its reported GI50.

INSERT INTO results (structure_smiles, tested_target, reported_endpoint, assay_value) VALUES
  ('CC1=CC=C2C(C)(C)CC[C@@H]3OC(=O)[C@H]1[C@]23C', 'IGROV-1', 'GI50', '> 100 µM (inactive)'),
  ('COc1ccc(/C(C#N)=C(/N)SCc2ccccc2Cl)cc1', 'IGROV-1', 'GI50', '29.2 µM (inactive)');

Consider the additional molecule presented here.
*Q* Param readout = GI50; param system = IGROV-1; param query = COc1ccc(/C(C)=N/NC(N)=S)c(OC)c1 ; response: value
*A* > 100 µM (inactive)

* * *

# Tested on: COLO 205
# procedure.summary: NCI tumour cell line growth inhibition, 48 h
Activity calls are given as the source filed them. Cut-off read from the data, not from the text of the source: active = GI50 up to about 1.1 µM and inactive = higher.
Please reply with one of these outcomes: y for active, n for inactive

Known results for compounds:
INSERT INTO assay_data (compound, class_name) VALUES
  ('CCOC(=O)N1CCN(c2nc(C)n(-c3ccccc3)c(=S)c2C#N)CC1', 'n'),
  ('COc1nc(N=P(c2ccccc2)(c2ccccc2)c2ccccc2)cc(=O)n1C', 'n'),
  ('Cc1nc2ccccc2nc1N1CCCC1', 'n'),
  ('Cc1cccc(N2C(=O)C(=O)C(c3nc4ccccc4s3)C(=O)C2=O)c1C', 'n');

*Q* Short answer needed: outcome of this test for COc1cc2oc(-c3ccc4c(c3)OCO4)c(OC)c(=O)c2c(O)c1OC ?
*A* n

*Q* Again, but for CCc1ncc(C(C)(O)c2ccccc2)n1Cc1ccccc1 (configuration not stated)
*A* n

*Q* Again, but for CCOC(=O)CC(C)C1(C(=O)OCC)CCCCC1=O (configuration not stated)
*A* n

*Q* Queued: CC(C)SC1SCC2C(=O)N(C)C3(CC3C)C(=O)OCC(NC(=O)c3nc4ccccc4cc3O)C(=O)NC(C)C(=O)N(C)C1C(=O)N(C)C1(CC1C)C(=O)OCC(NC(=O)c1nc3ccccc3cc1O)C(=O)NC(C)C(=O)N2C (configuration not stated)
*A* y

*Q* Same thing, different compound: S=C=NCCc1ccccc1 [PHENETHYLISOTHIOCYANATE]
*A* y

*Q* Same question, OC1CCCN(C2(c3cccs3)CCCCC2)C1 (configuration not stated) this time
*A* n

*Q* Then CCSc1nc(=S)n(-c2ccccc2)c(C)c1C(C)=O ?
*A* n

* * *

# Tested on: RXF 393
# procedure.summary: NCI tumour cell line growth inhibition, 48 h
Activity calls are given as the source filed them. Rule as the data show it: active = GI50 up to about 1.1 µM and inactive = higher.
Allowed answers: active, inactive

Check out these entries, answers already filled in.
INSERT INTO results (compound, tested_target, class_name) VALUES
  ('CCNC(=O)COc1ccc(Cl)c(C)c1', 'RXF 393', 'inactive'),
  ('O=c1cc(-c2ccccc2F)[nH]c2cc3c(cc12)OCO3', 'RXF 393', 'active'),
  ('OC1CCCN(C2(c3cccs3)CCCCC2)C1 (stereo unspecified)', 'RXF 393', 'inactive'),
  ('CC#CCCCC1(C)CCCNC1=S (stereo unspecified)', 'RXF 393', 'inactive'),
  ('CC1=CC(=O)CC2(C)CC[C@@H]3C[C@]12OC3(C)C (stereo partly specified)', 'RXF 393', 'inactive'),
  ('Oc1[nH]c(NCc2ccc(Cl)cc2)nc2ncnc1-2', 'RXF 393', 'inactive'),
  ('CCCCCCCc1cscc1-c1cscc1Br', 'RXF 393', 'inactive'),
  ('CC1=CC=C2C(C)(C)CC[C@@H]3OC(=O)[C@H]1[C@]23C', 'RXF 393', 'inactive'),
  ('COc1cc2nc(Cl)nc(NS(=O)(=O)c3cc4ccccc4s3)c2cc1OC', 'RXF 393', 'inactive'),
  ('CC[C@@]1(O)C(=O)OCc2c1cc1n(c2=O)Cc2c-1nc1ccccc1c2/C=N\NC(=O)C(C)N (stereo partly specified)', 'RXF 393', 'active');

Now look at this one.
*Q* Can you look up the reported call for O=C(O)C(C1NCCS1)N1Cc2ccccc2C1 (stereo unspecified) for me?
*A* inactive
